Every entry's value here was drawn from PubChem BioAssay AID1920062.

- TARGET DESC: Atrial natriuretic peptide receptor 2 (Homo sapiens) (UniProt P20594)
- Sequence (P20594 whole entry, looked up): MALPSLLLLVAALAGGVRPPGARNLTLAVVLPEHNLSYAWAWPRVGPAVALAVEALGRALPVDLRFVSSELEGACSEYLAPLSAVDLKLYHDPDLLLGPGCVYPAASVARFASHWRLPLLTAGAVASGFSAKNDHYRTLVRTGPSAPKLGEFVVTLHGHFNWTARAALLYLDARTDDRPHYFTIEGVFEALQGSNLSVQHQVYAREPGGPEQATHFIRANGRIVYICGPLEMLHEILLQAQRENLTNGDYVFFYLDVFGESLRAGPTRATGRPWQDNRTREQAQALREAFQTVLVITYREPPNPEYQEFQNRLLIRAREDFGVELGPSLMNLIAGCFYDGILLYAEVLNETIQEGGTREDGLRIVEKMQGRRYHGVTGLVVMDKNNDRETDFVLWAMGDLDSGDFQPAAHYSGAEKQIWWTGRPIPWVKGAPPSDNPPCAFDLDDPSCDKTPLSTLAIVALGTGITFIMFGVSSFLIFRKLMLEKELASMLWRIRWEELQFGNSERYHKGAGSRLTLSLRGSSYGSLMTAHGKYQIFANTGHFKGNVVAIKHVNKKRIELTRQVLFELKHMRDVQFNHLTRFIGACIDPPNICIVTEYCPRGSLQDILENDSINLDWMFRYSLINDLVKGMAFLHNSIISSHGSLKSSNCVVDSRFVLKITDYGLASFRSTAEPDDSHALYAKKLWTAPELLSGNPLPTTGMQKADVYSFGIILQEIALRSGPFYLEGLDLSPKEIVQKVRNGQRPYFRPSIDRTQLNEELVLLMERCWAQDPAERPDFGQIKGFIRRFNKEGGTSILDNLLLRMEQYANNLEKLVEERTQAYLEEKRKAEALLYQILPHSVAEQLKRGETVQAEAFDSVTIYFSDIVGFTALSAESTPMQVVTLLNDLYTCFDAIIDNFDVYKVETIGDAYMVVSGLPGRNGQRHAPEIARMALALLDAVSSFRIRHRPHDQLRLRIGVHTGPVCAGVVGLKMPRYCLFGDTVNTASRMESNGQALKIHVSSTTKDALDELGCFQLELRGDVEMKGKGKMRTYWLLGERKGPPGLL
- ASSAY SUMMARY: GC-B stimulated cGMP production enhancers – HEK293 GC-B cells, cGMP TR-FRET, EC30 CNP, primary screen (AID 1920062)
- MEASUREMENT CONDITIONS: at 10 µM, 0% at EC30 CNP, 100% saturating CNP
About 400 (0.11%) of roughly 370,000 compounds were called active.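 How the source made its calls: active means activation at 10 µM reaching about 35% in either raw or pattern-adjusted values (limit read from the data); inactive means the rest.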 This is one part of a sample in which actives are shown more often than they occur.
Please answer using one outcome listed in class 1 = active, class 0 = inactive

[Q] Would you mind telling me which call this test gave CCCN=C1NC(=O)C(CC(=O)NCCc2ccc(OC)c(OC)c2)S1 (stereo not drawn) ?
[A] class 0

[Q] Could you please tell me the result logged for COC(=O)c1ccc2nc(-c3ccc(F)cc3)c(Cc3ccc(C)cc3)n2c1 in this assay?
[A] class 1

[Q] For COC(=O)c1ccc2nc(-c3ccc(OC)c(OC)c3)c(Cc3ccccc3)n2c1 , which call appears in the assay record?
[A] class 0

[Q] What was the test verdict on COC(=O)c1ccc2nc(-c3ccc(C)cc3)c(Cc3ccc(OC)cc3C)n2c1 ?
[A] class 0

[Q] # outcome recorded in this test, key = CC1=C(C(N)=O)C(c2ccc(F)cc2)n2nc(CCCO)nc2N1 (stereo not drawn)
[A] class 0

[Q] Test call, this compound: Cc1ccc(C)n1-c1ccncc1
[A] class 0

[Q] Hi, sorry to bother you, what did the test record for Cc1ccc(NS(=O)(=O)c2ccc(C(=O)NCCCN3CCOCC3)cc2)cc1 ?
[A] class 0

[Q] Test call, this compound: C=CCn1c(=O)c(C(=O)NCc2ccc3c(c2)OCO3)c(O)c2ccccc21
[A] class 0

[Q] Outcome? COC(=O)CCNC(=O)c1ccc2[nH]c(C)c(C)c2c1
[A] class 0

[Q] Short answer needed: outcome of this test for Cc1cccc(N(C(=O)Cc2cccs2)C(C(=O)NCc2ccco2)c2ccncc2)c1 (stereo not drawn) ?
[A] class 0

[Q] Just curious, what result did CCn1c(/C=C/Nc2ccccc2)[n+](CC)c2ccc(C(=O)OCC(F)(F)F)cc21 get here?
[A] class 0

[Q] For this compound, state the assay outcome: O=C(/C=C/[C@H]1O[C@@H](n2cnc3c(NC(=O)c4ccccc4)ncnc32)[C@H](O)[C@@H]1O)NCc1ccccc1
[A] class 0

[Q] Identify the outcome logged in this assay for the compound shown: OC(CCl)CCl
[A] class 0

[Q] Could you check what this test reported for CC1(C)O[C@@H]2[C@H](O1)[C@@H](COS(=O)(=O)O)O[C@H]2n1cnc2c(=O)[nH]cnc21 ?
[A] class 0

[Q] Assay outcome for COC(=O)Cc1c(-c2[nH]c3ccccc3c2CC(=O)OC)[nH]c2ccccc12 : what was it?
[A] class 1

[Q] Which result was noted for this compound in the test: O=S1(=O)c2c(cccc2N2CCCCC2)O[C@H](COCc2ccccc2)CN1C1CC1
[A] class 0

[Q] Which outcome was entered for the compound Cc1ccc(C(=O)N2CCCC(c3ccccc3)=N2)cc1 in this test?
[A] class 0

[Q] Tell me the recorded outcome of this test for CCOC(=O)C1CCN(C(=O)Cc2c(C(=O)O)[nH]c3ccccc23)CC1 .
[A] class 0

[Q] // outcome(item) with item = CN(Cc1cccnc1)C(=O)c1cc(COc2ccc3ncccc3c2)on1
[A] class 0

[Q] So what was the verdict on NC(=O)C[n+]1cccc(C(N)=O)c1 in this test?
[A] class 0

[Q] I'd appreciate the recorded outcome for COC(=O)c1ccc2nc(-c3ccc(Cl)cc3)c(Cc3cccc(F)c3)n2c1 from this test.
[A] class 1

[Q] Status in this test for COc1ccccc1C(=O)CSc1nnc(-c2ccccn2)n1-c1ccccc1 ?
[A] class 0

[Q] Record lookup: outcome of this test for COc1ccc(OC)c(Cc2cnc3nc(N)nc(N)c3c2C)c1 ?
[A] class 0
